test: ATG_SREBP_CIS: Attagene CIS-FACTORIAL HepG2 Assay for human Sterol Regulatory Element Binding (SREBP) (AID 2282962); conditions: HepG2 Attagene cis-factorial SREBP reporter, mRNA; actives raise or lower the signal
Calls of active or inactive are those of the source. Rule for the calls: active = hit-call score of the fitted dose curve at least 0.9, where 1 is the maximum; inactive = score below 0.9.
The categories you may choose from are active, inactive

These solved cases illustrate the format of a correct answer.
{"compound": "CC(C)CCCCCCc1ccc(OCCOCCO)cc1", "classification": "inactive"}
{"compound": "OC[C@H]1O[C@@H](Oc2ccc(O)cc2)[C@H](O)[C@@H](O)[C@@H]1O", "classification": "inactive"}
{"compound": "CCN(CC)C(=O)N(CC)CC", "classification": "inactive"}

Exam item: Identify the outcome logged in this assay for the compound shown: C[C@H]1C[C@@H](O)CC(C)(C)C1
Marked response: inactive

Exam item: I'd appreciate the recorded outcome for C=CCCCCCCCCCC from this test.
Marked response: inactive

Exam item: Hi, do you know how CC(C)(C)C1=CC(=O)C(C(C)(C)C)=CC1=O came out in this test?
Marked response: active

Exam item: Per the assay record, what outcome was assigned to CCCCCCCCCC(=O)OC ?
Marked response: inactive

Exam item: Name the outcome recorded for CN(c1nccc(=O)[nH]1)C1CCN(c2nc3ccccc3n2Cc2ccc(F)cc2)CC1 in the assay.
Marked response: inactive

Exam item: Short answer needed: outcome of this test for N#Cc1cscn1 ?
Marked response: inactive

// data source = PubChem BioAssay (EPA / NIEHS)
